Species on record: Homo sapiens
measurementProtocol: Selectivity for human muscarinic M1 receptor over human histamine H1 receptor
resultType: Selectivity ratio

COc1ccc(Cn2c(N3CCC(NCC4CCOCC4)CC3)nc3ccccc32)cc1: > 1000
CN(C)CCN(C)C1CCN(c2nc3ccccc3n2Cc2ccc(F)cc2)CC1: > 1000
Fc1ccc(Cn2c(N3CCC(n4cccc4)CC3)nc3ccccc32)cc1: > 1000
CN(C)C1CCN(c2nc3ccccc3n2Cc2ccc(F)cc2)CC1: > 1000
Fc1ccc(Cn2c(N3CCC(NCC4CCOCC4)CC3)nc3ccccc32)cc1: > 1000
Cc1ccc(Cn2c(N3CCC(N(C)C)CC3)nc3ccccc32)cc1: > 1000
O=C1CCCCN1C1CCN(c2nc3ccccc3n2Cc2ccc(F)cc2)CC1: > 1000
COc1ccc(Cn2c(N3CCC(n4cc(C)cn4)CC3)nc3ccccc32)cc1: > 1000
COc1ccc(Cn2c(N3CCC(N(C)CC4CCOCC4)CC3)nc3ccccc32)cc1: > 1000
Fc1ccc(Cn2c(N3CCC(n4ccnc4)CC3)nc3ccccc32)cc1: > 1000
CN(CCO)C1CCN(c2nc3ccccc3n2Cc2ccc(F)cc2)CC1: > 1000

----------
assayedTarget: UniProtKB P10635
Sequence (P10635 whole entry): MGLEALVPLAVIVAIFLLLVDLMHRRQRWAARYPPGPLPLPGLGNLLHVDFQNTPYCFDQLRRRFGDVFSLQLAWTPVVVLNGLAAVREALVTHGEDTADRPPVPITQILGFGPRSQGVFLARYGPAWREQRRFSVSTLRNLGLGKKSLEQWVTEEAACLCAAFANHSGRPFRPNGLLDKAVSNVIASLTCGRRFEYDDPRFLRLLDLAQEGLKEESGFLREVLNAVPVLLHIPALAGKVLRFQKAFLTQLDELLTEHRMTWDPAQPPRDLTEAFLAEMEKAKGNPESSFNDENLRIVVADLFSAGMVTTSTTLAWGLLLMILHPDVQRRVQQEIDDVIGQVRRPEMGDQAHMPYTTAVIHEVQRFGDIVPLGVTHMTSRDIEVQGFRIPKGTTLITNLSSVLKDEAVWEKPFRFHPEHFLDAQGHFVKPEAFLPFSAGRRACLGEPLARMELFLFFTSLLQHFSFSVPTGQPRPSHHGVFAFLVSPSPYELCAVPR
measurementProtocol: Inhibition of CYP2D6
Type: ADME
conditionSummary: read-out: IC50
Doc: threshold 2 µM (exclusive). Items with IC50 beneath it return Fulfilled; others return Not fulfilled.

O=C1CCCCN1C1CCN(c2nc3ccccc3n2Cc2ccc(F)cc2)CC1: Not fulfilled
CN(CC1CCCCC1)C1CCN(c2nc3ccccc3n2Cc2ccc(F)cc2)CC1: Fulfilled
Fc1ccc(Cn2c(N3CCC(n4cccn4)CC3)nc3ccccc32)cc1: Fulfilled
Fc1ccc(Cn2c(N3CCC(n4cccc4)CC3)nc3ccccc32)cc1: Fulfilled
COc1ccc(Cn2c(N3CCC(n4cc(C)cn4)CC3)nc3ccccc32)cc1: Not fulfilled
COc1ccc(Cn2c(N3CCC(N(C)CC4CCOCC4)CC3)nc3ccccc32)cc1: Not fulfilled
Fc1ccc(Cn2c(N3CCC(n4ccnc4)CC3)nc3ccccc32)cc1: Fulfilled
CN(CCO)C1CCN(c2nc3ccccc3n2Cc2ccc(F)cc2)CC1: Not fulfilled

----------
assayedTarget: Histamine H1 receptor (Homo sapiens)
Sequence (P35367 whole entry): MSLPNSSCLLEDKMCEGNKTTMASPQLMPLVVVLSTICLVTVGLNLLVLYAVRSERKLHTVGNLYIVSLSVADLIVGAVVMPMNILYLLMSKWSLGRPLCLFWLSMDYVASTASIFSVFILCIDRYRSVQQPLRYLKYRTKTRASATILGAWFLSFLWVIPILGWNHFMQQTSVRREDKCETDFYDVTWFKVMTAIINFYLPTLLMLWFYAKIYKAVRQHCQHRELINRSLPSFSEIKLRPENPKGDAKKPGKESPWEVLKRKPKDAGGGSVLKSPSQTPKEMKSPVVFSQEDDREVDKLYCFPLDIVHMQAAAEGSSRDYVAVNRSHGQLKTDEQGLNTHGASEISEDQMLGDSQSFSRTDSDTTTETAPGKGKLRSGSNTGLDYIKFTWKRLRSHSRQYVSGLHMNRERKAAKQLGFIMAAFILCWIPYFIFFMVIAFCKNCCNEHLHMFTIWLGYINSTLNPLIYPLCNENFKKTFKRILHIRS
measurementProtocol: Displacement of [3H]pyrilamine from human histamine H1 receptor expressed in CHO Flp-In cells by liquid scintillation assay
Type: cell-based
resultType: Ki (nM)

CN(c1ccccc1)C1CCN(c2nc3ccccc3n2Cc2ccc(F)cc2)CC1: 80.5
CN(C1CCOCC1)C1CCN(c2nc3ccccc3n2Cc2ccc(F)cc2)CC1: 3.3
CN(CC1CCCCC1)C1CCN(c2nc3ccccc3n2Cc2ccc(F)cc2)CC1: 4.4

----------
System: Brain
measurementProtocol: Biodistribution in rat brain assessed per gram of tissue at 1 mg/kg, iv after 2 hrs
Type: ADME, organism-based
Set-up: dose 1 mg/kg, route intravenous
conditionSummary: in vivo
Decide using Drug uptake: a value greater than or equal to 60 ng/g is TRUE, a smaller one is FALSE.

CN(C1CCOCC1)C1CCN(c2nc3ccccc3n2Cc2ccc(F)cc2)CC1: FALSE
CN(c1nccc(=O)[nH]1)C1CCN(c2nc3ccccc3n2Cc2ccc(F)cc2)CC1: FALSE
CN(C)C1CCN(c2nc3ccccc3n2Cc2ccc(F)cc2)CC1: FALSE
Cc1ccc(/C(=C\CN2CCCC2)c2ccccn2)cc1: FALSE
CN(CC1CCOCC1)C1CCN(c2nc3ccccc3n2Cc2ccc(F)cc2)CC1: TRUE
